target: HLA-A*03:01; test: IEDB peptide-MHC binding, purified MHC/competitive/radioactivity; filed as Kd, often an IC50 or EC50 that approximates it; bounds were set here for any values at or beyond the usual limits of such assays; conditions: source organism: Dengue virus 2 Jamaica/1409/1983
# reported Kd; entries follow
# unit: µM | format: bare number

Note to self: Kd recorded for "MSYSMCTGK" was 0.00421

====

biological target: HLA-A*68:01; test: IEDB peptide-MHC binding, purified MHC/competitive/radioactivity; filed as Kd, often an IC50 or EC50 that approximates it; bounds were set here for any values at or beyond the usual limits of such assays; details: source organism: Vaccinia virus WR
# reported pKd; entries follow
Please treat pKd as minus the base-10 logarithm of the molar concentration.

Note to self: pKd recorded for "SLFKNVRLLK" was 6.47

Note to self: pKd recorded for "DMMFINSTCY" was 5.72

Note to self: pKd recorded for "IVTFRERYSY" was 5.99

Note to self: pKd recorded for "EARIVDKFGK" was 7.00

Note to self: pKd recorded for "NSCSIGNVTR" was 8.17

====

molecular target: HLA-B*46:01; experiment: IEDB peptide-MHC binding, purified MHC/direct/fluorescence; filed as Kd, often an IC50 or EC50 that approximates it; bounds were set here for any values at or beyond the usual limits of such assays; conditions: source organism: Influenza A virus (A/duck/Mongolia/47/2001(H7N1))
pKd: −log10 of the molar value.
Quantity kind: pKd

Note to self: pKd recorded for "NESGRLIDF" was ≤ 4.70

====

molecular target: HLA-A*02:11; assay: IEDB peptide-MHC binding, purified MHC/competitive/fluorescence; filed as Kd, often an IC50 or EC50 that approximates it; bounds were set here for any values at or beyond the usual limits of such assays; conditions: source organism: Human immunodeficiency virus 1
Quantity kind: Kd (µM)
# unit: µM | format: bare number

INSERT INTO measurements (macromolecule_sequence, test_target, assay_result) VALUES
  ('ALVEMGHHV', 'HLA-A*02:11', 0.0018);

Consider now this further sequence.
Note to self: Kd recorded for "KMGKAGYVT" was 0.0245

====

target: HLA-A*11:01; test: IEDB peptide-MHC binding, purified MHC/competitive/radioactivity; filed as Kd, often an IC50 or EC50 that approximates it; bounds were set here for any values at or beyond the usual limits of such assays; details: source organism: Dengue virus 3 Sri Lanka/1266/2000
Quantity kind: pKd
Please treat pKd as minus the base-10 logarithm of the molar concentration.

Note to self: pKd recorded for "AVEDEEFWK" was 6.03

====

target: HLA-A*68:02; assay: IEDB peptide-MHC binding, purified MHC/competitive/fluorescence; filed as Kd, often an IC50 or EC50 that approximates it; bounds were set here for any values at or beyond the usual limits of such assays; details: source organism: Candida albicans SC5314
Quantity kind: Kd

Tested system HLA-A*68:02; Kd recorded for "RVYNNTARY" was ≥ 20 µM

====

biological target: HLA-A*26:01; assay: IEDB peptide-MHC binding, purified MHC/direct/fluorescence; filed as Kd, often an IC50 or EC50 that approximates it; bounds were set here for any values at or beyond the usual limits of such assays; details: source organism: Shigella flexneri
Quantity kind: Kd (µM)
# unit: µM | format: bare number

Note to self: Kd recorded for "VVISKKDTY" was 6.93

====

biological target: HLA-A*03:01; assay: IEDB peptide-MHC binding, purified MHC/direct/fluorescence; filed as Kd, often an IC50 or EC50 that approximates it; bounds were set here for any values at or beyond the usual limits of such assays; details: source organism: Campylobacter jejuni
Quantity kind: Kd

Tested system HLA-A*03:01; Kd recorded for "WFGHLASDW" was ≥ 20 µM

====

molecular target: HLA-B*48:01; experiment: IEDB peptide-MHC binding, purified MHC/competitive/fluorescence; filed as Kd, often an IC50 or EC50 that approximates it; bounds were set here for any values at or beyond the usual limits of such assays; settings: source organism: Escherichia coli HS
Quantity kind: Kd (nM)
# unit: nM | format: bare number

Note to self: Kd recorded for "MMWATAQAL" was 242

====

target: HLA-A*23:01; assay: IEDB peptide-MHC binding, purified MHC/direct/fluorescence; filed as Kd, often an IC50 or EC50 that approximates it; bounds were set here for any values at or beyond the usual limits of such assays; details: source organism: Cryptosporidium parvum Iowa II
Quantity kind: Kd

Note to self: Kd recorded for "TVFRNQNRV" was ≥ 20 µM

====

target: HLA-A*11:01; assay: IEDB peptide-MHC binding, purified MHC/direct/fluorescence; filed as Kd, often an IC50 or EC50 that approximates it; bounds were set here for any values at or beyond the usual limits of such assays; conditions: source organism: Influenza A virus (A/chicken/Hunan/fg/2004(H5N1))
pKd: −log10 of the molar value.
Quantity kind: pKd

Tested system HLA-A*11:01; pKd recorded for "DTVNRTHQY" was ≤ 4.70

====

target: HLA-B*40:01; experiment: IEDB peptide-MHC binding, purified MHC/competitive/radioactivity; filed as Kd, often an IC50 or EC50 that approximates it; bounds were set here for any values at or beyond the usual limits of such assays; conditions: source organism: Mammarenavirus juninense
pKd: −log10 of the molar value.
Quantity kind: pKd

Note to self: pKd recorded for "PELELNVDAM" was ≤ 4.16

====

target: HLA-B*15:01; assay: IEDB peptide-MHC binding, purified MHC/competitive/fluorescence; bounds were set here for any values at or beyond the usual limits of such assays; settings: source organism: Vaccinia virus Copenhagen
# reported pIC50; entries follow
Please treat pIC50 as minus the base-10 logarithm of the molar concentration.

INSERT INTO measurements (macromolecule_sequence, quantity_kind, assay_result) VALUES
  ('ASPMLYQLL', 'pIC50', 4.43);

Consider now this further sequence.
Note to self: pIC50 recorded for "MLEGETKLY" was 4.21

====

target: HLA-A*02:01; assay: IEDB peptide-MHC binding, purified MHC/competitive/fluorescence; filed as Kd, often an IC50 or EC50 that approximates it; bounds were set here for any values at or beyond the usual limits of such assays; conditions: source organism: Cytophaga hutchinsonii ATCC 33406
Quantity kind: Kd (nM)
# unit: nM | format: bare number

Tested system HLA-A*02:01; Kd recorded for "GLADAFILL" was 0.6

====

biological target: HLA-A*32:07; assay: IEDB peptide-MHC binding, purified MHC/competitive/fluorescence; filed as Kd, often an IC50 or EC50 that approximates it; bounds were set here for any values at or beyond the usual limits of such assays; settings: source organism: Giardia lamblia ATCC 50803
Quantity kind: Kd (nM)
# unit: nM | format: bare number

Note to self: Kd recorded for "RLYPFGSYY" was 4.1

====

biological target: HLA-A*32:01; experiment: IEDB peptide-MHC binding, purified MHC/competitive/radioactivity; filed as Kd, often an IC50 or EC50 that approximates it; bounds were set here for any values at or beyond the usual limits of such assays; conditions: source organism: Lymphocytic choriomeningitis virus (strain Armstrong)
Quantity kind: pKd
Please treat pKd as minus the base-10 logarithm of the molar concentration.

Note to self: pKd recorded for "KLSHSDYEY" was 5.19

====

target: HLA-B*35:01; test: IEDB peptide-MHC binding, purified MHC/direct/fluorescence; filed as Kd, often an IC50 or EC50 that approximates it; bounds were set here for any values at or beyond the usual limits of such assays; settings: source organism: Corynebacterium glutamicum
Quantity kind: pKd
Please treat pKd as minus the base-10 logarithm of the molar concentration.

Note to self: pKd recorded for "WPALSSIAA" was 8.77

====

target: HLA-B*08:01; test: IEDB peptide-MHC binding, purified MHC/direct/fluorescence; filed as Kd, often an IC50 or EC50 that approximates it; bounds were set here for any values at or beyond the usual limits of such assays; conditions: source organism: Variola virus
pKd: −log10 of the molar value.
Quantity kind: pKd

Note to self: pKd recorded for "ATNDGLIKK" was ≤ 4.70

====

biological target: HLA-A*31:01; experiment: IEDB peptide-MHC binding, purified MHC/competitive/radioactivity; filed as Kd, often an IC50 or EC50 that approximates it; bounds were set here for any values at or beyond the usual limits of such assays; conditions: source organism: Dengue virus 2 Jamaica/1409/1983
Quantity kind: Kd

Tested system HLA-A*31:01; Kd recorded for "MALFLEEMLR" was 19.6 nM

====

biological target: HLA-A*03:01; experiment: IEDB peptide-MHC binding, purified MHC/direct/fluorescence; filed as Kd, often an IC50 or EC50 that approximates it; bounds were set here for any values at or beyond the usual limits of such assays; conditions: source organism: Klebsiella pneumoniae
Quantity kind: Kd

Note to self: Kd recorded for "LLQEKYGLI" was ≥ 20 µM

====

biological target: HLA-B*48:01; test: IEDB peptide-MHC binding, purified MHC/direct/fluorescence; filed as Kd, often an IC50 or EC50 that approximates it; bounds were set here for any values at or beyond the usual limits of such assays; details: source organism: Escherichia coli O157:H7
Quantity kind: Kd

Note to self: Kd recorded for "VMAASGAPF" was ≥ 20 µM
